Target: AGTR1 (Homo sapiens)
Construct: host or cells: Pathunter CHO-K1 AGTR1 β-arrestin cell line (CHO-K1)
Sequence (P30556 1-359): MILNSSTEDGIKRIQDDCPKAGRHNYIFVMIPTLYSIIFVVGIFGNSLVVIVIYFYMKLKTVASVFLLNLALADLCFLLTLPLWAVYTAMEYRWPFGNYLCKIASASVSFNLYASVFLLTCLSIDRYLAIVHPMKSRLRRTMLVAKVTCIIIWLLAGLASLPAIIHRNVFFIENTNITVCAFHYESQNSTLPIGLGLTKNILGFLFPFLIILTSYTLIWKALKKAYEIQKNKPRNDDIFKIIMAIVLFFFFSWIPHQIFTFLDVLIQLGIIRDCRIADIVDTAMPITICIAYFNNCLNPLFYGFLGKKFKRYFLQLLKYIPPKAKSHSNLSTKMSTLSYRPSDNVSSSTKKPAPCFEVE
Experiment: DiscoveRx IP1 accumulation assay (HTRF), agonist mode, Pathunter CHO-K1 AGTR1 β-arrestin cell line
Type: cell-based
OBSERVATION TYPE: IP-1 Ymax (%)

>>> quantitative_readout("CCc1nc2c(C)cc(C)nc2n1Cc1ccc(-c2cc(-c3cccc(OC)n3)ccc2-c2nn[nH]n2)cc1")
12.1
>>> quantitative_readout("CCc1nc2c(C)cc(C)nc2n1Cc1ccc(-c2cc(-c3cccc(C(=O)N(C)C)c3)ccc2-c2nn[nH]n2)cc1")
7.3
>>> quantitative_readout("CCCCOC(=O)NS(=O)(=O)c1sc(-c2cccnc2OC)cc1-c1ccc(Cn2c(CC)nc3c(C)cc(C)nc32)cn1")
10.0
>>> quantitative_readout("CCc1nc2c(C)cc(C)nc2n1Cc1ccc(-c2cc(-c3cn(CCF)nn3)ccc2-c2nnn[nH]2)cc1")
34.2
>>> quantitative_readout("CCCCC1=NC2(CCCC2)C(=O)N1Cc1ccc(-c2cc(N3CCCC(C)(C)C3)ccc2-c2nn[nH]n2)cc1")
3.8
>>> quantitative_readout("CCc1nc2c(C)cc(C)nc2n1Cc1ccc(-c2cc(-c3ccccc3O)ccc2-c2nn[nH]n2)cc1")
14.4
>>> quantitative_readout("CCc1nc2c(C)cc(C)nc2n1Cc1ccc(-c2cc(-n3cc(C(C)C)nn3)ccc2-c2nnn[nH]2)cc1")
9.8

---

molecular target: AGTR1 (Homo sapiens); construct: host or cells: Pathunter CHO-K1 AGTR1 β-arrestin cell line (CHO-K1); assay: DiscoveRx β-arrestin2 recruitment assay (enzyme complementation, Pathunter CHO-K1 AGTR1 β-arrestin cell line); type: cell-based; settings: DiscoveRx β-arrestin2 recruitment
pEC50: −log10 of the molar value.
Listing of entries alongside the reported pEC50.
OBSERVATION TYPE: pEC50

>>> quantitative_readout("CCOc1nc2cccc(C(=O)O)c2n1Cc1ccc(-c2cc(-c3ccccc3)ccc2-c2nn[nH]n2)cc1")
7.65
>>> quantitative_readout("CCOc1nc2cccc(C(=O)O)c2n1Cc1ccc(-c2cc(N3CCC[C@@H](C)C3)ccc2-c2nn[nH]n2)cc1")
7.65
>>> quantitative_readout("CCc1nc2c(C)cc(C)nc2n1Cc1ccc(-c2cc(C3CCCO3)ccc2-c2nn[nH]n2)cc1 (single isomer, unassigned) [Example 73]")
6.97
>>> quantitative_readout("CCCc1nc(CC)c(C(=O)O)n1Cc1ccc(-c2cc(-c3ccccc3)ccc2-c2nn[nH]n2)cc1")
8.30
>>> quantitative_readout("CCCCC(=O)N(Cc1ccc(-c2cc(-c3ccccc3)ccc2-c2nn[nH]n2)cc1)[C@]1(C(=O)O)CC[C@H](O)CC1")
7.68
>>> quantitative_readout("CCCCC(=O)N(Cc1ccc(-c2cc(Oc3ccccc3)ccc2-c2nn[nH]n2)cc1)C1(C(=O)O)CCCCC1")
7.18
>>> quantitative_readout("CCc1nc2c(C)cc(C)nc2n1Cc1ccc(-c2cc(-n3ccc(C)n3)ccc2-c2nnn[nH]2)cc1")
7.34

---

# pEC50 per entry
Target: hAT1R (Homo sapiens)
Sequence (P30556 1-359): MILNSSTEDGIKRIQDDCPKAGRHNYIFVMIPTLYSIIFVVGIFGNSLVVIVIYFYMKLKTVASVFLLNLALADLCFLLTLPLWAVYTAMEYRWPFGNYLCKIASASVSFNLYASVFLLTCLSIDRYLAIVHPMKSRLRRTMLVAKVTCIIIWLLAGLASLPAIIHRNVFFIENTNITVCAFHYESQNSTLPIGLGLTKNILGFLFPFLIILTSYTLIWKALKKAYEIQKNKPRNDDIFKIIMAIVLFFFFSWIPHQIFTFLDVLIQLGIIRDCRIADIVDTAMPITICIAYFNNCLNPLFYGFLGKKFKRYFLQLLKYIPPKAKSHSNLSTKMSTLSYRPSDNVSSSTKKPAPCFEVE
Assay: cell-based
Settings: agonist mode; read-out: BRET P63 EC50
pEC50: −log10 of the molar value.
OBSERVATION TYPE: pEC50

>>> quantitative_readout("CCc1nc2c(C)cc(C)nc2n1Cc1ccc(-c2cc(-c3cn(CC(C)C)nn3)ccc2-c2nnn[nH]2)cc1")
7.22
>>> quantitative_readout("CCc1nc2c(C)cc(C)nc2n1Cc1ccc(-c2cc(-n3cc(C(F)(F)F)cn3)ccc2-c2nnn[nH]2)cc1")
7.95
>>> quantitative_readout("CCOc1nc2cccc(C(=O)O)c2n1Cc1ccc(-c2cc(-c3ccc(C)cn3)ccc2-c2noc(=O)[nH]2)cc1")
8.05
>>> quantitative_readout("CCc1nc2c(C)cc(C)nc2n1Cc1ccc(-c2cc(Oc3ccccc3F)ccc2-c2noc(=O)[nH]2)cc1")
7.45
>>> quantitative_readout("CCc1nc2c(C)cc(C)nc2n1Cc1ccc(-c2cc(-n3cc(C)cn3)ccc2-c2nnn[nH]2)cc1")
8.57
>>> quantitative_readout("CCc1nc2c(C)cc(C)nc2n1Cc1cnc(-c2cc(-c3cccc(C)c3)ccc2C(=O)O)cn1")
6.24
>>> quantitative_readout("CCc1nc2c(C)cc(C)nc2n1Cc1ccc(-c2cc(-c3cn(CC)nn3)ccc2-c2nnn[nH]2)cc1")
7.55
>>> quantitative_readout("CCc1nc2c(C)cc(C)nc2n1Cc1ccc(-c2cc(Oc3cccnc3)ccc2-c2nnn[nH]2)cc1")
7.63
>>> quantitative_readout("CCc1nc2c(C)cc(C)nc2n1Cc1ccc(-c2cc(-c3nccs3)ccc2-c2nn[nH]n2)cc1")
7.37
>>> quantitative_readout("CCOc1nc2cccc(C(=O)O)c2n1Cc1ccc(-c2cc(-c3ccccc3)ccc2-c2noc(=O)[nH]2)cc1")
8.44
>>> quantitative_readout("CCCCC1=NC2(CCOCC2)C(=O)N1Cc1ccc(-c2cc(-c3cc(C)ccn3)ccc2-c2nn[nH]n2)cc1")
7.51
>>> quantitative_readout("CCc1nc2c(C)cc(C)nc2n1Cc1ccc(-c2cc(Oc3ccccc3)ccc2-c2nnn[nH]2)cc1")
7.97
>>> quantitative_readout("CCOc1nc2cccc(C(=O)O)c2n1Cc1ccc(-c2cc(-c3cc(N(C)C)ccn3)ccc2-c2noc(=O)[nH]2)cc1")
7.17
>>> quantitative_readout("CCCC1=NC2(CCOC2)C(=O)N1Cc1ccc(-c2cc(-c3ccccc3O)ccc2-c2nnn[nH]2)cc1 (single isomer, unassigned) [Example 164]")
6.98
>>> quantitative_readout("CCc1nc2c(C)cc(C)nc2n1Cc1ccc(-c2cc(Oc3cncnc3)ccc2-c2nnn[nH]2)cc1")
6.86
>>> quantitative_readout("CCc1nc2c(C)cc(C)nc2n1Cc1ncc(-c2cc(-c3ccccc3O)ccc2-c2nnn[nH]2)cn1")
7.49
>>> quantitative_readout("CCCc1cn(-c2ccc(-c3nnn[nH]3)c(-c3ccc(Cn4c(CC)nc5c(C)cc(C)nc54)cc3)c2)nn1")
6.90
>>> quantitative_readout("CCc1nc2c(C)cc(C)nc2n1Cc1ccc(-c2cc(OC3CCCCC3)ccc2-c2nnn[nH]2)cc1")
7.42
>>> quantitative_readout("CCCn1cc(-c2ccc(-c3nnn[nH]3)c(-c3ccc(Cn4c(CC)nc5c(C)cc(C)nc54)cc3)c2)nn1")
7.46
>>> quantitative_readout("CCc1nc2c(C)cc(C)nc2n1Cc1ccc(-c2cc(Oc3ccccc3F)ccc2-c2nnn[nH]2)cc1")
7.74

---

Biological target: AGTR1 (Homo sapiens, UniProt P30556)
Construct: host or cells: Pathunter CHO-K1 AGTR1 β-arrestin cell line (CHO-K1)
Sequence (P30556 1-359): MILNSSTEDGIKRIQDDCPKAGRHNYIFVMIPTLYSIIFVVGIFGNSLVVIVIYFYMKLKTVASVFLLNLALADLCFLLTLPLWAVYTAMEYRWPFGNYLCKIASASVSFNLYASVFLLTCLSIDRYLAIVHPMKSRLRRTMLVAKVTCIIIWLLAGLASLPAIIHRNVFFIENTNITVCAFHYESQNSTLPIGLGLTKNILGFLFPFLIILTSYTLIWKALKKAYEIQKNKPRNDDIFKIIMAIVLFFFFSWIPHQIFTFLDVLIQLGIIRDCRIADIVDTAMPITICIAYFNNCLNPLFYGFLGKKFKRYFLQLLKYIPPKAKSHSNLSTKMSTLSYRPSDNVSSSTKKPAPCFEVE
Assay: DiscoveRx β-arrestin2 recruitment assay (enzyme complementation, Pathunter CHO-K1 AGTR1 β-arrestin cell line)
Assay type: cell-based
Conditions: DiscoveRx β-arrestin2 recruitment
Procedure: In one aspect of the invention, signaling bias of compounds was assessed by comparing the relative activity of compounds to activate both the β-arrestin and Gq signaling pathways. In order to confirm signaling bias, compounds were studied in two different assay formats. DiscoveRx β-arrestin2 Recruitment and IP1 Assays β-arrestin2 recruitment to activated receptors can be assessed using an enzyme complementation method (Zhao, Jones et al. 2008). […]
Category key, based on recorded EC50: band 1 = under 10 nM, band 2 = from 10 nM up to 50 nM, band 3 = 50 nM and over

>>> cat("CCCCC1=NC2(CCCC2)C(=O)N1Cc1ccc(-c2cc(-c3ccccn3)ccc2-c2nn[nH]n2)cc1 [Example 140]")
"band 1"
>>> cat("CCc1nc2c(C)cc(C)nc2n1Cc1ccc(-c2cc(-c3ccccn3)ccc2-c2nn[nH]n2)cc1 [Example 30]")
"band 1"
>>> cat("CCc1nc2c(C)cc(C)nc2n1Cc1ccc(-c2cc(C3CCCCC3)ccc2-c2nn[nH]n2)cc1 [Example 71]")
"band 2"
>>> cat("O=C(O)c1cccc2nc(O)n(Cc3ccc(-c4cc(-c5ccccc5)ccc4-c4nn[nH]n4)cc3)c12 [Example 317]")
"band 3"
>>> cat("CCCCC1=NC2(CCOC2)C(=O)N1Cc1ccc(-c2cc(-c3ccccc3)ccc2-c2nnn[nH]2)cc1 (single isomer, unassigned) [Example 147]")
"band 3"
>>> cat("CCCC1=NC2(CCOC2)C(=O)N1Cc1ccc(-c2cc(-c3cccc(C)c3)ccc2-c2nnn[nH]2)cc1 (single isomer, unassigned) [Example 163]")
"band 3"
>>> cat("CCc1nc2c(C)cc(C)nc2n1Cc1ccc(-c2cc(N3CCC(F)(F)C3)ccc2-c2nn[nH]n2)cc1 [Example 51]")
"band 2"
>>> cat("CCCCc1nc(Cl)c(C(=O)O)n1Cc1ccc(-c2cc(-c3ccccc3)ccc2-c2nn[nH]n2)cc1 [Example 384]")
"band 1"
>>> cat("CCCCC1=NC2(CCOC2)C(=O)N1Cc1ccc(-c2cc(-c3cccc(C)c3)ccc2-c2nnn[nH]2)cc1 (single isomer, unassigned) [Example 152]")
"band 2"
>>> cat("CCCCC(=O)N(Cc1ccc(-c2cc(-c3cccc(OC)n3)ccc2-c2nn[nH]n2)cc1)[C@H](C(=O)O)C(C)C [Example 446]")
"band 3"
>>> cat("CCC1=NC2(CCOC2)C(=O)N1Cc1ccc(-c2cc(-c3cccc(C)c3)ccc2-c2nnn[nH]2)cc1 (single isomer, unassigned) [Example 169]")
"band 3"
>>> cat("CCCCC1=NC2(CCCC2)C(=O)N1Cc1ccc(-c2cc(-c3ccc(OC(F)F)cn3)ccc2-c2nn[nH]n2)cc1 [Example 136]")
"band 1"
>>> cat("CCCCc1ncc(C(=O)NCc2cccnn2)n1Cc1ccc(-c2cc(-c3ccccc3)ccc2-c2nn[nH]n2)cc1 [Example 355]")
"band 1"
>>> cat("CCCCC1=NC2(CCCC2)C(=O)N1Cc1ccc(-c2cc(N3CCCC(C)(C)C3)ccc2-c2nn[nH]n2)cc1 [Example 102]")
"band 2"
>>> cat("CCc1nc2c(C)cc(C)nc2n1Cc1ccc(-c2cc(-c3ccccc3)ccc2-c2nn[nH]n2)cc1 [Example 4]")
"band 1"
>>> cat("CCCCC(=O)N(Cc1ccc(-c2cc(-c3cnn(C)c3)ccc2-c2nn[nH]n2)cc1)C1(C(=O)O)CCCCC1 [Example 288]")
"band 3"
>>> cat("CCc1nc2c(C)cc(C)nc2n1Cc1ccc(-c2cc(-n3nnc4ccccc43)ccc2-c2nnn[nH]2)cc1 [Example 233]")
"band 2"
>>> cat("CCCCC1=NC2(CCOCC2)C(=O)N1Cc1ccc(-c2cc(-c3cc(C)ccn3)ccc2-c2nn[nH]n2)cc1 [Example 171]")
"band 2"
>>> cat("CCCCC1=NC2(CCCC2)C(=O)N1Cc1ccc(-c2cc(-c3ccsn3)ccc2-c2nn[nH]n2)cc1 [Example 123]")
"band 1"
>>> cat("CCOc1nc2cccc(C(=O)O)c2n1Cc1ccc(-c2cc(-c3cccnc3OC)ccc2C(=O)O)cc1 [Example 318]")
"band 2"
>>> cat("CCCCC(=O)N(Cc1ccc(-c2cc(-c3ccccc3)ccc2-c2nn[nH]n2)cc1)[C@]1(C(=O)O)CC[C@@H](C)CC1 [Example 278]")
"band 2"
>>> cat("CCc1nc2c(C)cc(C)nc2n1Cc1ccc(-c2cc(-n3ncc4ccccc43)ccc2-c2nnn[nH]2)cc1 [Example 215]")
"band 1"
>>> cat("CCCCC(=O)N(Cc1ccc(-c2cc(Oc3cccnc3)ccc2-c2nn[nH]n2)cc1)C1(C(=O)O)CCCCC1 [Example 286]")
"band 3"
>>> cat("CCc1nc2c(C)cc(C)nc2n1Cc1ccc(-c2cc(-c3ccccc3OC(F)(F)F)ccc2-c2nn[nH]n2)cc1 [Example 1]")
"band 2"
>>> cat("CCOc1nc2cccc(C(=O)O)c2n1Cc1ccc(-c2cc(-c3ccc(C(=O)N(C)C)cc3)ccc2-c2noc(=O)[nH]2)cc1 [Example 321]")
"band 3"
>>> cat("CCOc1nc2cccc(C(=O)O)c2n1Cc1ccc(-c2cc(Oc3ccccc3F)ccc2-c2nn[nH]n2)cc1 [Example 334]")
"band 2"
>>> cat("CCc1nc2c(C)cc(C)nc2n1Cc1ccc(-c2cc(N3CCC(OC)CC3)ccc2-c2nn[nH]n2)cc1 [Example 87]")
"band 2"
